Value source: the supplement of paper PMC11616607

Tested on: OVCAR5
Test: drug sensitivity score (DSS) from 5-point dose-response viability curve (DSS (area-under-curve based score)); higher = more sensitive (stronger growth inhibition or killing); extreme values may be limits of the assay
Conditions: exposure time: 72 h; concentration range: 5 concentrations over 10,000-fold range
result.type: drug sensitivity score
Numbers only.

Some solved entries appear below for comparison.
[
  {
    "molecule": "Cc1cc(Nc2cc(CN3CCOCC3)c3nc(C)c(Cc4ccc(Cl)cc4F)n3n2)n[nH]1 [Gandotinib]",
    "test.target": "OVCAR5",
    "result.type": "drug sensitivity score",
    "observed.measurement": 5.8
  },
  {
    "molecule": "CC1(C)CC[C@]2(NC(=O)C(C)(F)F)CC[C@]3(C)[C@H](C(=O)C=C4[C@@]5(C)C=C(C#N)C(=O)C(C)(C)[C@@H]5CC[C@]43C)[C@@H]2C1 [Omaveloxolone]",
    "test.target": "OVCAR5",
    "result.type": "drug sensitivity score",
    "observed.measurement": 13.7
  },
  {
    "molecule": "O=C(Nc1cc(Cl)cc2c1[nH]c1cnccc12)c1cccnc1 [PS-1145]",
    "test.target": "OVCAR5",
    "result.type": "drug sensitivity score",
    "observed.measurement": 1.6
  },
  {
    "molecule": "O=C(O)c1ccc(-c2c[nH]c3ncc(-c4ccccc4)cc23)cc1C1CCCC1",
    "test.target": "OVCAR5",
    "result.type": "drug sensitivity score",
    "observed.measurement": 1.4
  },
  {
    "molecule": "CC1(COc2ccc3c(c2)ncn3-c2ccc3cccc(N4CCC(N)CC4)c3n2)COC1 [Crenolanib]",
    "test.target": "OVCAR5",
    "result.type": "drug sensitivity score",
    "observed.measurement": 4.9
  }
]

I need drug sensitivity score for every entry listed below, if you could help.
1. CCCN(CCC)C(=O)C1=Cc2ccc(-c3ccc(C(=O)N4CCCC4)cc3)cc2N=C(N)C1 [Motolimod]
2. CC(C)C[C@@H](C(=O)N[C@H](C(=O)OC1CCCC1)c1ccccc1)[C@H](O)C(=O)NO [Tosedostat]
3. Nc1ncn([C@@H]2O[C@H](CO)[C@@H](O)[C@H]2O)c(=O)n1 [Azacitidine]

0.5
8.3
2.2

###

Record form. Attribute: drug sensitivity score. Fill in for each entry.
System: Kuramochi
Assay: drug sensitivity score (DSS) from 5-point dose-response viability curve (DSS (area-under-curve based score)); higher = more sensitive (stronger growth inhibition or killing); extreme values may be limits of the assay
Conditions: exposure time: 72 h; concentration range: 5 concentrations over 10,000-fold range

[
  {
    "compound": "CCn1c(-c2nonc2N)nc2cnc(Oc3cccc(NC(=O)c4ccc(OCCN5CCOCC5)cc4)c3)cc21",
    "result.type": "drug sensitivity score",
    "observed.measurement": 2.1
  }
]

Would you mind listing drug sensitivity score for each of the following compounds?
1. CN(C)CCCOc1ccc(-c2ccc3ncc4c(c3c2)n(C2CCOCC2)c(=O)n4C)cn1 [AZD0156]
2. Cc1sc2c(c1C)C(c1ccc(Cl)cc1)=N[C@@H](CC(=O)Nc1ccc(O)cc1)c1nnc(C)n1-2 [Birabresib]
3. CCCCc1nc2cc(/C=C/C(=O)NO)ccc2n1CCN(CC)CC [Pracinostat]

0.2
12.5
13.5

###

For each record, write down the corresponding drug sensitivity score.
Test system: OVCAR4
Test: drug sensitivity score (DSS) from 5-point dose-response viability curve (DSS (area-under-curve based score)); higher = more sensitive (stronger growth inhibition or killing); extreme values may be limits of the assay
Conditions: exposure time: 72 h; concentration range: 5 concentrations over 10,000-fold range

[
  {
    "molecule": "Cc1cc(Nc2cc(CN3CCOCC3)c3nc(C)c(Cc4ccc(Cl)cc4F)n3n2)n[nH]1 [Gandotinib]",
    "test.target": "OVCAR4",
    "result.type": "drug sensitivity score",
    "observed.measurement": 4
  },
  {
    "molecule": "COc1cc(OC2CCN(C)CC2)ccc1Nc1ncc2c(n1)n(C1CCCC1)c(=O)n2C [AZ 3146]",
    "test.target": "OVCAR4",
    "result.type": "drug sensitivity score",
    "observed.measurement": 1.5
  },
  {
    "molecule": "Nc1cc(F)ccc1NC(=O)c1ccc(CNC(=O)/C=C/c2cccnc2)cc1 [Tucidinostat]",
    "test.target": "OVCAR4",
    "result.type": "drug sensitivity score",
    "observed.measurement": 1.7
  }
]

For each entry beneath this line, provide reported drug sensitivity score.
1. Nc1ccccc1NC(=O)c1ccc(CNc2nccc(-c3cccnc3)n2)cc1 [Mocetinostat]
2. S=C(NCc1ccc2c(c1)OCO2)N1CCN(c2ncnc3c2oc2ccccc23)CC1 [Amuvatinib]

[6.8, 0.9]

###

Task for the reader: assign each of the following compounds its reported drug sensitivity score.
System: Ovsaho
Test: drug sensitivity score (DSS) from 5-point dose-response viability curve (DSS (area-under-curve based score)); higher = more sensitive (stronger growth inhibition or killing); extreme values may be limits of the assay
Conditions: exposure time: 72 h; concentration range: 5 concentrations over 10,000-fold range
Numbers only.

// solved cases for drug sensitivity score follow
[
  {
    "compound": "CN(C)C/C=C/C(=O)Nc1cc2c(Nc3ccc(F)c(Cl)c3)ncnc2cc1O[C@H]1CCOC1 [Afatinib]",
    "drug sensitivity score": 3.2
  },
  {
    "compound": "CCC1=C[C@@H]2CN(C1)Cc1c([nH]c3ccccc13)[C@@](C(=O)OC)(c1cc3c(cc1OC)N(C)[C@H]1[C@@](O)(C(=O)OC)[C@H](OC(C)=O)[C@]4(CC)C=CCN5CC[C@]31[C@@H]54)C2 [Vinorelbine]",
    "drug sensitivity score": 19.9
  },
  {
    "compound": "Cc1c(N)nc([C@H](CC(N)=O)NC[C@H](N)C(N)=O)nc1C(=O)N[C@H](C(=O)N[C@H](C)[C@@H](O)[C@H](C)C(=O)N[C@H](C(=O)NCCc1nc(-c2nc(C(=O)NCCC[S+](C)C)cs2)cs1)[C@@H](C)O)[C@@H](OC1OC(CO)C(O)C(O)C1OC1OC(CO)C(O)C(OC(N)=O)C1O)c1cnc[nH]1 (stereo partly specified) [Bleomycin]",
    "drug sensitivity score": 1
  },
  {
    "compound": "Cn1ncc(Cl)c1-c1cc(C(=O)N[C@H](CN)Cc2cccc(F)c2)sc1Cl [Afuresertib]",
    "drug sensitivity score": 1.5
  },
  {
    "compound": "Cc1cnc(-c2ccccc2C(C)C)nc1NCc1ccc(-n2ccnn2)cc1 [ML323]",
    "drug sensitivity score": 0
  },
  {
    "compound": "C[C@H]1O[C@@H](O[C@H]2[C@@H](O)C[C@H](O[C@H]3[C@@H](O)C[C@H](O[C@H]4CC[C@@]5(C)[C@H](CC[C@@H]6[C@@H]5C[C@@H](O)[C@]5(C)[C@@H](C7=CC(=O)OC7)CC[C@]65O)C4)O[C@@H]3C)O[C@@H]2C)C[C@H](O)[C@@H]1O [Digoxin]",
    "drug sensitivity score": 7.1
  },
  {
    "compound": "O=C(Nc1ccc(OC(F)(F)Cl)cc1)c1cnc(N2CC[C@@H](O)C2)c(-c2cc[nH]n2)c1 [Asciminib]",
    "drug sensitivity score": 0
  },
  {
    "compound": "CCNc1nc(Nc2cc(F)c(C(=O)N3CCOCC3)cc2OC)ncc1C(F)(F)F [GNE-7915]",
    "drug sensitivity score": 0
  },
  {
    "compound": "COc1cc(CCc2cc(NC(=O)c3ccc(N4CC(C)NC(C)C4)cc3)n[nH]2)cc(OC)c1 (stereo unspecified) [AZD4547]",
    "drug sensitivity score": 0
  },
  {
    "compound": "CCCCCOC(=O)Nc1nc(=O)n([C@@H]2O[C@H](C)[C@@H](O)[C@H]2O)cc1F [Capecitabine]",
    "drug sensitivity score": 0
  }
]

Batch: drug sensitivity score for all items listed.
1. Nc1ncnc2c1nc(N)n2[C@@H]1O[C@H](CO)[C@@H](O)[C@H]1O [8-amino-adenosine]
2. Nc1nc2[nH]cnc2c(=S)[nH]1 [Thioguanine]
3. NC(=O)/C(=C/n1cnc(-c2cc(C(F)(F)F)cc(C(F)(F)F)c2)n1)c1cncnc1 [Eltanexor]
4. CC(C)C[C@H](NC(=O)[C@H](CCc1ccccc1)NC(=O)CN1CCOCC1)C(=O)N[C@@H](Cc1ccccc1)C(=O)N[C@@H](CC(C)C)C(=O)[C@@]1(C)CO1 [Carfilzomib]
5. Cc1cc(Nc2cc(N3CCN(C)CC3)nc(/C=C/c3ccccc3)n2)n[nH]1 [ENMD-2076]
6. CC[C@H](NC(=O)[C@H](C)NC)C(=O)N1C[C@@H](O)C[C@H]1Cc1c(-c2[nH]c3cc(F)ccc3c2C[C@@H]2C[C@H](O)CN2C(=O)[C@H](CC)NC(=O)[C@H](C)NC)[nH]c2cc(F)ccc12 [Birinapant]
7. Cc1cn(-c2cc(NC(=O)c3ccc(C)c(Nc4nccc(-c5cnccn5)n4)c3)cc(C(F)(F)F)c2)cn1 [Radotinib]
8. COc1cc2c(Oc3ccc4[nH]c(C)cc4c3F)ncnc2cc1OCCCN1CCCC1 [Cediranib]

26
8
19.3
28.4
8.8
11.6
0
0.7

Kindly give each listed record's drug sensitivity score.
1. N#Cc1ccc2[nH]c(O)c(-c3ccc(CN4CCOCC4)cn3)c2c1 [AZD-1080]
2. COc1ccc(-c2ccc3ncc4c(c3c2)n(-c2ccc(N3CCNCC3)c(C(F)(F)F)c2)c(=O)n4C)cn1 [NVP-BGT226]
3. Cc1nc(C(=O)NCC(=O)O)c(O)c2ccc(Oc3ccccc3)cc12 [Roxadustat]
4. CC1(COc2ccc3c(c2)ncn3-c2ccc3cccc(N4CCC(N)CC4)c3n2)COC1 [Crenolanib]
5. O=C(O)c1ccc(O)c2ncccc12 [IOX-1]
6. CC(C)C[C@H](NC(=O)[C@@H](COC(C)(C)C)NC(=O)[C@H](Cc1ccc(O)cc1)NC(=O)[C@H](CO)NC(=O)[C@H](Cc1c[nH]c2ccccc12)NC(=O)[C@H](Cc1cnc[nH]1)NC(=O)[C@@H]1CCC(=O)N1)C(=O)N[C@@H](CCCNC(=N)N)C(=O)N1CCC[C@H]1C(=O)NNC(N)=O [Goserelin]

0
15.6
0
4.4
1.6
4.7

Record drug sensitivity score for all entries; do not skip any.
1. CC(C)Oc1ccc(C(=O)N[C@H](CNC(=O)CN(C)C)Cc2ccc(-c3cn4cccc([C@H](C)O)c4n3)cc2)cc1Cl
2. COc1cc(OC2CCN(C)CC2)ccc1Nc1ncc2c(n1)n(C1CCCC1)c(=O)n2C [AZ 3146]

1: 10.2; 2: 4.7
